- target_entity: Solute carrier family 2, facilitated glucose transporter member 1 (Homo sapiens) (UniProt P11166)
- Sequence (P11166 whole entry): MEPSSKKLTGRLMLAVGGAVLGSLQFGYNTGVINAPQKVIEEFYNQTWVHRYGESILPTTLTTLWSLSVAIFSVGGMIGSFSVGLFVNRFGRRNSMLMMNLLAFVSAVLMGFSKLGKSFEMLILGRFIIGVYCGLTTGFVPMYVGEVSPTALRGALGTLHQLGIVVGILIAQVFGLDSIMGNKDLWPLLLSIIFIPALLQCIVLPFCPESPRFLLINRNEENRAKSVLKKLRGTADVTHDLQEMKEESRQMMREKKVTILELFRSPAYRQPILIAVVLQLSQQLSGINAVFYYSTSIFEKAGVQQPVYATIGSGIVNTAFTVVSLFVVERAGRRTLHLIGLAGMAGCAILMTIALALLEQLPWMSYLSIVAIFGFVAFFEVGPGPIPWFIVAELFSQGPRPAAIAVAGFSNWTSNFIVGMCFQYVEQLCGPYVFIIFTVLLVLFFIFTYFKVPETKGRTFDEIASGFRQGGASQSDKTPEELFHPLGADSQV
- measurement_description: ST_JUDE_LEISH: Cytotoxicity at 2uM final concentration against transgenic Leishmania Mexicana promastigotes LmGLUT1 that are glucose transport deficient and complemented with the human glucose transporter GLUT1. Activity is measured by DNA content using SYBR green in vitro
- Format: functional
measured_endpoint: inhibition (%)
Answer format: numeric, % implied, no suffix.

**Query** # inhibition lookup, item COc1cc(Nc2nccc(NCC(O)c3ccc(C(F)(F)F)cc3)n2)cc(OC)c1OC (stereo unspecified)
**Result** 1.6

**Query** Quick one: `N=C(N)NC(=O)Nc1cc(Br)c(Cl)c(Br)c1`
**Result** -0.91

**Query** Quick one: `CC(C)Sc1ccc(Cl)cc1CON1C(=N)N=C(N)NC1(C)C`
**Result** 2.72

**Query** Quick one: `Nc1ccc(-c2cnc3[nH]cc(-c4ccc(C(=O)O)cc4)c3c2)cn1`
**Result** -0.33

**Query** Quick one: Cc1ccc2c(c1C)NC(=O)C21NN=C(c2ccccc2)S1 (stereo unspecified)
**Result** -1.86

**Query** Quick one: `CN(C)c1cc(C(=O)N[C@@H](Cc2ccccc2)[C@H](O)CNC2CCCCC2)cc2[nH]ccc12`
**Result** 5.43

**Query** Quick one: `Cc1cc(N)c2cc(NC(=O)c3cc4ccccc4s3)ccc2n1`
**Result** -0.05

**Query** Quick one: `N#Cc1ccc(NC(=O)c2ccc(Cc3ccc4c(c3)CCN(C3CCC3)CC4)cn2)cc1`
**Result** 9.64

**Query** Quick one: `Fc1cccc(COc2ccc(Nc3ncnc4ccc(-c5nnc(C(F)(F)F)o5)cc34)cc2Cl)c1`
**Result** 4.63

**Query** Quick one: `CCn1c(-c2nc(-c3ccc4c(c3)OCO4)cnc2N)nc2cnccc21`
**Result** 19.7

**Query** Quick one: `Cc1cc(N[C@@H](Cc2ccccc2)C(=O)Nc2ccccc2)nc(NCCN2CCCC2)n1`
**Result** -2.01

**Query** Quick one: `Cn1c(N)c(N=O)c(=O)[nH]c1=O`
**Result** 1.53

**Query** Quick one: `CCn1c(SCc2ccc(F)cc2)nc2sc3c(c2c1=O)CCN(C)C3`
**Result** -1.93

**Query** Quick one: `OCCNc1nc(Nc2ccc(F)cc2)nc2ccccc12`
**Result** 3.51

**Query** Quick one: `Cc1ccc(Cc2c(N)nc3nc(N)nc(N)c3c2C)cc1`
**Result** 4.96

**Query** Quick one: `CCc1cn2c3c(cc(C(=O)N[C@@H](Cc4cc(F)cc(F)c4)[C@H](O)CNC4CC4)cc13)N(C)S(=O)(=O)CC2`
**Result** 3.44

**Query** Quick one: `Cn1nc(-c2cccc(CNCc3ccccc3)c2)c2cnc(NC3CCCC3)nc21`
**Result** -0.97

**Query** Quick one: `CN(C)c1ccc(CN2CCC(NC(=O)c3ccc(-c4cccc(F)c4)s3)CC2)cc1`
**Result** 4.53

**Query** Quick one: `Cc1cc(N/N=C/c2ccccc2[N+](=O)[O-])c2cccc(C)c2n1`
**Result** 11.2

**Query** Quick one: `Cc1c(Cn2ncc(N3CCC(N)CC3)c(Cl)c2=O)cccc1NC(=O)Nc1ccc(-c2ccccc2)cc1`
**Result** 3.52

**Query** Quick one: `CCCc1cccc(OC)c1OCCCON1C(N)=NC(N)=NC1(C)C`
**Result** -2.03

* * *

- target_entity: Solute carrier family 2, facilitated glucose transporter member 1 (Homo sapiens)
- measurement_description: ST_JUDE_LEISH: Cytotoxicity at 2uM final concentration against transgenic Leishmania Mexicana promastigotes LmGLUT1 that are glucose transport deficient and complemented with the human glucose transporter GLUT1. Activity is measured by DNA content using SYBR green in vitro
- Assay type: functional
Outcome: rule met for inhibition of at least 0.6%; rule not met for anything lower.

**Query** # check: inhibition of `CCc1cc(-c2onc(C)c2-c2cc3ccccc3o2)c(O)cc1OC` is greater than or equal to 0.6%
**Result** rule met

**Query** Quick one: `CC(C)CNC(=O)c1cncc(-c2ccc(CNCCCc3ccccc3)cc2)c1`
**Result** rule met

**Query** Quick one: COc1cc(NC2CCCC(NCc3cn(S(=O)(=O)c4ccccc4)c4ccccc34)C2)nc2ccccc12 (stereo not given)
**Result** rule met

**Query** Quick one: `COc1ccc(-c2cn3c(C(=O)Nc4ccccc4Cl)c(-c4ccccc4)c4c3n2CCCC4)cc1`
**Result** rule not met

* * *

- target_entity: Solute carrier family 2, facilitated glucose transporter member 1 (Homo sapiens) (UniProt P11166)
- measurement_description: ST_JUDE_LEISH: Cytotoxicity at 2uM final concentration against transgenic Leishmania Mexicana promastigotes LmGLUT1 that are glucose transport deficient and complemented with the human glucose transporter GLUT1. Activity is measured by DNA content using SYBR green in vitro
- Assay type: functional
We'd kindly ask you to apply these inhibition classes: class A: < 3%; class B: ≥ 3% and < 6%; class C: ≥ 6%

**Query** # classify by inhibition band: `COC(=O)c1cccc(CNCc2ccc(-c3ccc(-c4nc5cc(F)ccc5[nH]4)s3)cc2)c1`
**Result** class A

**Query** Quick one: `O=C(C=Cc1cccs1)Nc1ccc(-c2nc3ccccc3[nH]2)cc1`
**Result** class A

**Query** Quick one: O=C(NC1CCN(c2ccnc3ccccc23)C1)c1ccc(OC(F)(F)F)cc1 (stereo not given)
**Result** class A

**Query** Quick one: `Cc1cc(N[C@@H](Cc2ccccc2)C(=O)NCc2cccc(F)c2)nc(NCCOc2ccccc2)n1`
**Result** class B

**Query** Quick one: `Cc1ccc(Nc2nc(-c3ccccn3)cs2)nc1`
**Result** class C

**Query** Quick one: `COc1cccc(NC(=O)Nc2c(-c3cccc(C(F)(F)F)c3)c(C(F)(F)F)nn2C)c1`
**Result** class A

**Query** Quick one: `COc1ccc(/C=C/C(=O)NCCCCCN2CCC(c3c[nH]c4ccccc34)CC2)cc1O`
**Result** class C

**Query** Quick one: NC1CCN(Cc2cccc(-c3ccc(-c4nc5ccccc5[nH]4)s3)c2)C1 (stereo not given)
**Result** class B

**Query** Quick one: `COc1ccc2nccc([C@@H](O)CN3CCC(NC(=O)c4cc5c(F)cc(F)cc5[nH]4)CC3)c2c1`
**Result** class C

* * *

- target_entity: Glucose transporter (Leishmania mexicana)
- measurement_description: ST_JUDE_LEISH: Cytotoxicity at 2uM final concentration against transgenic Leishmania Mexicana promastigotes LmGT2 that are glucose transport deficient and complemented with the L. Mexicana glucose transporter 2. Activity is measured by DNA content using SYBR green in vitro
- Assay type: functional
measured_endpoint: inhibition (%)
Answer format: numeric, % implied, no suffix.

**Query** # inhibition lookup, item `Cc1cc(N[C@@H](Cc2ccccc2)C(=O)NCc2cccc(F)c2)nc(NCCc2ccccc2)n1`
**Result** 2.48

**Query** Quick one: `N#Cc1ccc(N[C@@H](CC2CCCCC2)C(=O)Nc2ccc(-c3ccccc3)cc2)c2ccccc12`
**Result** 3.75

**Query** Quick one: `C/C=C/COc1ccc(-c2c(C)[nH]c(C)c(Cl)c2=O)cc1`
**Result** 4.16

**Query** Quick one: `CN(C)CCNC(=O)c1ccc(-c2cnc3ccc(NCc4ccc(Cl)c(Cl)c4)nn23)cc1`
**Result** 11.1

**Query** Quick one: `Cc1cc(N[C@@H](Cc2ccccc2)C(=O)NCc2cccc(F)c2)nc(NCCCOC(C)C)n1`
**Result** 1.72

**Query** Quick one: `CN1CCN(c2ccnc3ccc(NC(=O)Nc4ccc(-c5ccncc5)c5ccccc45)cc23)CC1`
**Result** 5.81

**Query** Quick one: N#Cc1ccc2c(c1)CCN(CCC1CCC(NC(=O)/C=C/c3nc4ccccc4s3)CC1)CC2 (centres undefined)
**Result** -0.08

**Query** Quick one: OC(CNc1ccnc(Nc2cccc(Cl)c2)n1)c1cccc(F)c1 (centres undefined)
**Result** -3.09

**Query** Quick one: CC1(C)CCC(=Cc2ccc(Cl)cc2)CC1(O)Cn1ccnc1 (centres undefined)
**Result** 3.82

* * *

- target_entity: Hexose transporter 1 (Plasmodium falciparum) (UniProt O97467)
- measurement_description: ST_JUDE_LEISH: Cytotoxicity at 2uM final concentration against transgenic Leishmania Mexicana promastigotes LmPfHT that are glucose transport deficient and complemented with the Plasmodium falciparum hexose transporter. Activity is measured by DNA content using SYBR green in vitro
- Format: functional
measured_endpoint: inhibition (%)
Answer format: numeric, % implied, no suffix.

**Query** Give Hexose transporter 1 (Plasmodium falciparum) (UniProt O97467) inhibition for `N=C(NCCc1ccc(Cl)cc1)c1ccc(Cl)c(Cl)c1`
**Result** 2.64

**Query** Quick one: `O=C(Nc1cccc(CN2CCN(C(=O)c3cccc(Cl)c3)CC2)c1)c1ccco1`
**Result** 0.58

**Query** Quick one: `NC(=O)c1ccccc1OCC(=O)Nc1cccc(-c2cccc(-c3nc4ccccc4[nH]3)c2)c1`
**Result** 1.07

**Query** Quick one: `OCC(CO)(CO)NCc1ccc2c3c(cccc13)-c1ccccc1-2`
**Result** 14.8

**Query** Quick one: COc1ccc(C2CC(c3cccs3)=NN2C(=O)CNc2ccccc2F)cc1OC (stereo not given)
**Result** 1.72

**Query** Quick one: Cc1cc(NC(=O)c2coc3cc(F)c(N4CC(C)N(C)C(C)C4)cc23)cnc1-c1ccc(C#N)cc1 (stereo not given)
**Result** -1

**Query** Quick one: CCOc1ncccc1CN1CCC(N2CCc3cc(NC(=O)c4ccco4)ccc32)C1 (stereo not given)
**Result** -0.71

**Query** Quick one: COc1ccc(C2C(C(=O)Nc3ccccc3)=C(C)Nc3c(C(=O)Nc4ccccc4)cnn32)cc1 (stereo not given)
**Result** 0.21

**Query** Quick one: CC(CCc1ccccc1)NCC(O)c1cccc([N+](=O)[O-])c1 (stereo not given)
**Result** -2.9

**Query** Quick one: Cn1c(=N)n(CC(=O)N2CCc3ccc(Cl)cc3C2Cc2ccc(Cl)c(Cl)c2)c2ccccc21 (stereo not given)
**Result** 1.29

Value source: ChEMBL document CHEMBL3433997
